Tested on: UACC-62 melanoma
Method notes: NCI tumour cell line growth inhibition, 48 h; in the data active means GI50 below about 0.43 µM; inactive means the rest
Could you please pick one outcome from this set? 1 (yes) = active, 0 (no) = inactive

In: Look up the recorded call for CC(=O)[O-].[Mn+3].[O-]c1ccc(Cl)cc1C=NCCN=Cc1cc(Cl)ccc1[O-] in this test.
Out: 0 (no)

In: Look up the recorded call for COc1ccc(Cc2nc3cc(OC)c(OC)cc3c(=O)[nH]2)cc1 in this test.
Out: 0 (no)

In: Look up the recorded call for O=C(OC[C@@H]1CO1)c1cccc2c(=O)c3ccccc3[nH]c12 in this test.
Out: 1 (yes)

In: Look up the recorded call for COc1c(O)c2c3c(c1OC)-c1ccccc1CC3N(S(=O)(=O)c1ccc(C)cc1)CC2 (centres undefined) in this test.
Out: 0 (no)

In: Look up the recorded call for N#CCC1(n2cc(-c3ncnc4[nH]ccc34)cn2)CN(C2CCN(C(=O)c3ccnc(C(F)(F)F)c3F)CC2)C1 in this test.
Out: 0 (no)

In: Look up the recorded call for O=C(c1ccccc1)C(Br)C(Br)c1ccccc1 (centres undefined) in this test.
Out: 0 (no)

In: Look up the recorded call for O=c1nc2[nH]c3c(-c4n[nH]c(=O)[nH]c4=O)cccc3c2n[nH]1 in this test.
Out: 0 (no)

In: Look up the recorded call for COc1ccc(OCC(O)CN2CCN(c3ccc(Cl)cc3)CC2)cc1 (centres undefined) in this test.
Out: 0 (no)

In: Look up the recorded call for N/C(=N\C(N)=N\c1nc2ccccc2s1)c1cnccn1 in this test.
Out: 0 (no)

====

System: KM12 colon
Method notes: NCI tumour cell line growth inhibition, 48 h
Assay metric: TGI

Note to self: TGI of COc1ccc(/C(C)=C(\c2ccc(Cl)cc2)c2ccc(OCCN3CCCCCC3)cc2)cc1F with KM12 colon was 7.04 µM

Note to self: TGI of COc1ccc(OC)c2c(=O)c3ccccc3[nH]c12 with KM12 colon was > 100 µM

Note to self: TGI of C[n+]1c(-c2ccc(/C=N/NC(=O)C(=O)N/N=C/c3ccc(-c4cn5ccccc5[n+]4C)cc3)cc2)cn2ccccc21 with KM12 colon was > 100 µM

Note to self: TGI of O=C1C=C/C(=C/[C@H]2SSC=C[C@]23C=CC(=O)C3)C1 with KM12 colon was 46.6 µM

Note to self: TGI of Nc1nc(=S)[nH]c(C(=O)Nc2nccs2)c1-c1ccccc1 with KM12 colon was > 100 µM

Note to self: TGI of CC1CCCN1CCCOC(=O)c1ccc(OC2C=CCCC2)cc1 (stereo unspecified) with KM12 colon was > 100 µM

Note to self: TGI of O=S(=O)(O)c1cc(O)c(N=Nc2ccc3ccccc3c2O)c2ccccc12 with KM12 colon was > 100 µM

Note to self: TGI of COc1cc2c(cc1OC)C(=O)/C(=C/c1ccc(N(C)C)cc1)CC2 with KM12 colon was > 10 µM

Note to self: TGI of CSc1nc[nH]c1C(N)=S with KM12 colon was > 100 µM

Note to self: TGI of CC1(C)CC[C@]2(C(=O)O)CC[C@]3(C)C(=CC[C@@H]4[C@@]5(C)C/C(=C/c6ccco6)C(=O)C(C)(C)[C@@H]5CC[C@]43C)[C@@H]2C1 with KM12 colon was 11.6 µM

Note to self: TGI of COc1cccc(CCCNC(=O)Cc2ccccc2CO)c1 with KM12 colon was > 100 µM

====

Test system: NCI-H522 lung
Method notes: NCI tumour cell line growth inhibition, 48 h
Assay metric: TGI (µM)
Give just the number in µM; leave the unit off.

Note to self: TGI of O=C1CCS/C(=N/S(=O)(=O)c2ccc(N3N=C4c5ccccc5CC4C3c3cccs3)cc2)N1Cc1ccccc1 (configuration not stated) with NCI-H522 lung was 40

Note to self: TGI of Cc1ncc(CSC(=N)N)n1Cc1ccccc1 with NCI-H522 lung was 64.4

Note to self: TGI of COc1ccc(N=Nc2c(N)nn3c(SC)c(C#N)c(N)nc23)cc1 with NCI-H522 lung was 36.8

====

System: SK-MEL-5 melanoma
Method notes: NCI tumour cell line growth inhibition, 48 h
Assay metric: TGI

// TGI lookup, compound = CCOC(=O)c1csc(NC(=O)C(C)N2CCOCC2)n1 (stereo not given) , result: > 100 µM

// TGI lookup, compound = CC[C@]1(Cc2ccc(OC)c(OC)c2)C=[N+]([O-])O[C@H](OC2CCCC2(c2ccccc2)c2ccccc2)[C@@H]1OC(=O)C(C)(C)C (stereo not given in full) , result: 4.09 µM

// TGI lookup, compound = CCOC(=O)c1cc2c3c(cc(OC)c2[nH]1)N(C(=O)OCC)CC3 , result: > 100 µM

// TGI lookup, compound = CCOC(=O)c1cn(CC)c2ccc3c(c2c1=O)S(=O)(=O)C=C3 , result: > 100 µM

// TGI lookup, compound = COC(=O)C1CCC(=O)N1/C(C)=N/NC(=O)Nc1ccc(Cl)c(Cl)c1 (stereo not given) , result: > 100 µM

// TGI lookup, compound = Cn1c(NC(=O)NC23CC4CC(CC(C4)C2)C3)nc2ccccc21 , result: > 100 µM

// TGI lookup, compound = O=C(OC[C@@H]1CO1)c1cccc2c(=O)c3ccccc3[nH]c12 , result: 0.473 µM

// TGI lookup, compound = COc1ccc2c(c1)[n+](=O)c(C(C)=O)c(C)n2[O-] , result: > 100 µM

// TGI lookup, compound = O=C(O)/C=C/c1ccncc1 , result: > 100 µM

// TGI lookup, compound = NC(N)=N/N=C/c1c(-c2ccc(Cl)c([N+](=O)[O-])c2)nc2sc3ccccc3n12 , result: 1.95 µM

====

Tested on: RPMI-8226 leukemia
Method notes: NCI tumour cell line growth inhibition, 48 h
Answer each item with its documented TGI.
Give just the number in µM; leave the unit off.

Note to self: TGI of Cn1c(=O)c2c(nc(N/N=C3/SCC(=O)N3Cc3ccccc3)n2C)n(C)c1=O with RPMI-8226 leukemia was 66.3

Note to self: TGI of Oc1ccccc1C=Nc1nc(OCc2ccccc2)nc2[nH]ncc12 with RPMI-8226 leukemia was 43.5

Note to self: TGI of Cc1ccnc(Nc2ccc([N+](=O)[O-])c(NCCN3CCOCC3)n2)c1 with RPMI-8226 leukemia was 24.5

Note to self: TGI of c1ccc2c3c([nH]c2c1)C1C2CCCCN2C(c2ccncc2)N1CC3 (centres undefined) with RPMI-8226 leukemia was 87.3

Note to self: TGI of CCOc1ccc(Nc2nc(-c3c(C)nc4ncccn34)cs2)cc1 with RPMI-8226 leukemia was 14.5

Note to self: TGI of C=C(Cn1c2ccccc2c(=O)c2ccccc21)c1ccc(C(=O)Nc2ccccc2N)cc1 with RPMI-8226 leukemia was 3.06

Note to self: TGI of Cn1ccnc1C(=O)/C=C/c1ccc(C(=O)Nc2c(F)c(F)c(F)c(F)c2F)cc1 with RPMI-8226 leukemia was 2.54

Note to self: TGI of O=C(C(=O)c1cc(Br)ccc1O)c1cc(Br)ccc1O with RPMI-8226 leukemia was 88.2

Note to self: TGI of CN(C)c1ccc(C2CC(C)(O)Oc3cc4c(cc32)OCO4)cc1 (centres undefined) with RPMI-8226 leukemia was 47.6

Note to self: TGI of COc1ccc(/C(C)=C(\c2ccc(Cl)cc2)c2ccc(OCCN3CCCCCC3)cc2)cc1F with RPMI-8226 leukemia was 9.92

Note to self: TGI of CC1CCCN1CCCOC(=O)c1ccc(OC2C=CCCC2)cc1 (centres undefined) with RPMI-8226 leukemia was 68.2

Note to self: TGI of CCN1CCN(c2nc(NNC(=O)c3ccccc3)nc(N3CCN(C(c4ccccc4)c4ccccc4)CC3)n2)CC1 with RPMI-8226 leukemia was 4.1

Note to self: TGI of OCC#Cc1ccccc1C#Cc1ccc(C#Cc2ccccc2)cc1 with RPMI-8226 leukemia was 22.2

Note to self: TGI of NC(N)=N/N=C/c1c(-c2ccncc2)nc2sc(Cl)cn12 with RPMI-8226 leukemia was 21.1

Note to self: TGI of Cc1ncc(CSC(=N)N)n1Cc1ccccc1 with RPMI-8226 leukemia was 83.2

Note to self: TGI of CN(/N=C\c1ccc2ccccc2c1)C1=NCCCN1 with RPMI-8226 leukemia was 50.7

====

Answer each item with its documented TGI.
Test system: HCT-15 colon
Method notes: NCI tumour cell line growth inhibition, 48 h
Give just the number in µM; leave the unit off.

// TGI lookup, molecule = Cc1ccc(-n2cc(-c3ccc(Cl)cc3)c3c(=N)n(N)cnc32)cc1 , result: 28.9

// TGI lookup, molecule = O=C1c2ccccc2C(=O)c2sc(Nc3cc(Cl)ccc3Cl)nc21 , result: 9.48

// TGI lookup, molecule = O=C(/C(=C/c1ccc(O)cc1)c1ccccc1)c1ccccc1 , result: 31.9

// TGI lookup, molecule = O=c1[nH]c2ccc([N+](=O)[O-])cc2nc1/C(=N/Nc1ccccc1)C(O)c1ccco1 (stereo not given) , result: 63.5

// TGI lookup, molecule = CCN1CCN(c2nc(NNC(=O)c3ccccc3)nc(N3CCN(C(c4ccccc4)c4ccccc4)CC3)n2)CC1 , result: 5.84

// TGI lookup, molecule = CC(C)=CCC/C(C)=C/C=C/C(C)=C/C1C[C@@]2(C(O)O1)[C@H](CCCO)/C(=C(/C)C=O)CC[C@]2(C)O (stereo not given in full) , result: 31
